# Test system: KRAS-mutant PDC tumor spheroid with HUVEC/MSC, viability
# assay info: Anticancer human tumor 327498-153-R-J2-PDC patient-derived uterine carcinosarcoma cell line growth inhibition [KRAS2]
# condition summary: curve of first compound; second compound 1 µM
pIC50: −log10 of the molar value.
Below, each entry is listed with its recorded pIC50.

Sample answers from the record:
compound	pIC50
COc1cc(Nc2ncc3c(n2)-c2ccc(Cl)cc2C(c2c(F)cccc2OC)=NC3)ccc1C(=O)O + CC1OCC2(CCN(c3cnc(Sc4ccnc(N)c4Cl)c(N)n3)CC2)C1N	> 7.50
CC(C)n1nc(-c2ccc3oc(N)nc3c2)c2c(N)ncnc21 + CC1OCC2(CCN(c3cnc(Sc4ccnc(N)c4Cl)c(N)n3)CC2)C1N	> 9.50
CC(C)NCC(C(=O)N1CCN(c2ncnc3c2C(C)CC3O)CC1)c1ccc(Cl)cc1 (centres undefined) + C=CC(=O)N1CCN(c2nc(=O)n(-c3c(C)ccnc3C(C)C)c3nc(-c4c(O)cccc4F)c(F)cc23)C(C)C1	> 7.50

**Query** What pIC50 value was documented for this compound, CC1OCC2(CCN(c3cnc(Sc4ccnc(N)c4Cl)c(N)n3)CC2)C1N (centres undefined) + C=CC(=O)N1CCN(c2nc(=O)n(-c3c(C)ccnc3C(C)C)c3nc(-c4c(O)cccc4F)c(F)cc23)C(C)C1 ?
**Result** > 7.50

---

# Test system: KRAS-mutant PDC tumor spheroid with HUVEC/MSC, viability
# assay info: Anticancer human tumor 327498-153-R-J2-PDC cell line growth inhibition [KRAS2];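 also: spheroids exposed to agents for seven days before reading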
# condition summary: curve of first compound; second compound 0.316 µM
readout label: IC50 (nM)
Answer format: numeric, nM implied, no suffix.

Study these solved cases before continuing.
molecule	test result
CC(C)NCC(C(=O)N1CCN(c2ncnc3c2C(C)CC3O)CC1)c1ccc(Cl)cc1 (stereo not given) + COc1cc2nc(C)nc(NC(C)c3cc(N)cc(C(F)(F)F)c3)c2cc1OC1CCOC1	102
Cn1ncnc1[C@H]1c2n[nH]c(=O)c3cc(F)cc(c23)N[C@@H]1c1ccc(F)cc1 + CNCc1ccccc1-c1csc(C(C)Nc2nc(C)nc3cc(OC)c(OC)cc23)c1	10.7

**Query** Item under review: CC(=O)Nc1cccc(-n2c(=O)n(C3CC3)c(=O)c3c(Nc4ccc(I)cc4F)n(C)c(=O)c(C)c32)c1 + CNCc1ccccc1-c1csc(C(C)Nc2nc(C)nc3cc(OC)c(OC)cc23)c1 . Reported IC50?
**Result** 4.68

---

# System: KRAS-mutant PDC tumor spheroid with HUVEC/MSC, viability
# assay info: Anticancer human tumor 327498-153-R-J2-PDC cell line growth inhibition [KRAS2];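 also: spheroids exposed to agents for seven days before reading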;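 as to viability, T/C: 100% = DMSO vehicle wells so lower means fewer viable cells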
# condition summary: second compound 3.16 µM; first compound 0.0316 µM; stronger effect = lower value
readout label: viability, T/C (%)
Give just the numeric value; % need not be written.

Illustrative cases are given below, each with its answer.
compound	target	viability, T/C / %
CC1(C)CCC(CN2CCN(c3ccc(C(=O)NS(=O)(=O)c4ccc(NCC5CCOCC5)c([N+](=O)[O-])c4)c(Oc4cnc5[nH]ccc5c4)c3)CC2)=C(c2ccc(Cl)cc2)C1 + C=CC(=O)N1CCN(c2nc(OCC3CCCN3C)nc3c2CCN(c2cccc4cccc(C)c24)C3)CC1CC#N	KRAS-mutant PDC tumor spheroid with HUVEC/MSC, viability	1.15
O=C(c1cc(Cc2n[nH]c(=O)c3ccccc23)ccc1F)N1CCN(C(=O)C2CC2)CC1 + CNCc1ccccc1-c1csc(C(C)Nc2nc(C)nc3cc(OC)c(OC)cc23)c1	KRAS-mutant PDC tumor spheroid with HUVEC/MSC, viability	57.7
Cn1ncnc1[C@H]1c2n[nH]c(=O)c3cc(F)cc(c23)N[C@@H]1c1ccc(F)cc1 + C=CC(=O)N1CCN(c2nc(OCC3CCCN3C)nc3c2CCN(c2cccc4cccc(C)c24)C3)CC1CC#N	KRAS-mutant PDC tumor spheroid with HUVEC/MSC, viability	0.18

**Query** Entry under review: COc1cc(Nc2ncc3c(n2)-c2ccc(Cl)cc2C(c2c(F)cccc2OC)=NC3)ccc1C(=O)O + C=CC(=O)N1CCN(c2nc(=O)n(-c3c(C)ccnc3C(C)C)c3nc(-c4c(O)cccc4F)c(F)cc23)C(C)C1 . Reported viability, T/C?
**Result** 9.6

**Query** Entry Cn1ncnc1[C@H]1c2n[nH]c(=O)c3cc(F)cc(c23)N[C@@H]1c1ccc(F)cc1 + COc1cc2nc(C)nc(NC(C)c3cc(N)cc(C(F)(F)F)c3)c2cc1OC1CCOC1 has what viability, T/C?
**Result** 26.5

**Query** Any idea what its viability, T/C is? The compound is O=C(c1cc(Cc2n[nH]c(=O)c3ccccc23)ccc1F)N1CCN(C(=O)C2CC2)CC1 + COc1cc2nc(C)nc(NC(C)c3cc(N)cc(C(F)(F)F)c3)c2cc1OC1CCOC1
**Result** 78.4

**Query** Consider the compound shown here: Cn1nccc1Nc1nccc(-c2cc3c(s2)C(C)(C)N(CCN2CCOCC2)C3=O)n1 + CNCc1ccccc1-c1csc(C(C)Nc2nc(C)nc3cc(OC)c(OC)cc23)c1 What is its recorded viability, T/C?
**Result** 0.13

**Query** Name the reported viability, T/C value associated with the compound Cn1nccc1Nc1nccc(-c2cc3c(s2)C(C)(C)N(CCN2CCOCC2)C3=O)n1 + C=CC(=O)N1CCN(c2nc(=O)n(-c3c(C)ccnc3C(C)C)c3nc(-c4c(O)cccc4F)c(F)cc23)C(C)C1
**Result** 60.5

**Query** Request the reported viability, T/C associated with O=C(c1cc(Cc2n[nH]c(=O)c3ccccc23)ccc1F)N1CCN(C(=O)C2CC2)CC1 + CC1OCC2(CCN(c3cnc(Sc4ccnc(N)c4Cl)c(N)n3)CC2)C1N
**Result** 40.5

**Query** I'd like to know its viability, T/C. The compound in question is Cn1nccc1Nc1nccc(-c2cc3c(s2)C(C)(C)N(CCN2CCOCC2)C3=O)n1 + C=CC(=O)N1CCN(c2nc(OCC3CCCN3C)nc3c2CCN(c2cccc4cccc(C)c24)C3)CC1CC#N
**Result** 0.15

**Query** Looking for the measured viability, T/C of Cn1nccc1Nc1nccc(-c2cc3c(s2)C(C)(C)N(CCN2CCOCC2)C3=O)n1 + CC1OCC2(CCN(c3cnc(Sc4ccnc(N)c4Cl)c(N)n3)CC2)C1N , can you help?
**Result** 30.3

**Query** Given CC1OCC2(CCN(c3cnc(Sc4ccnc(N)c4Cl)c(N)n3)CC2)C1N (configuration not stated) + CNCc1ccccc1-c1csc(C(C)Nc2nc(C)nc3cc(OC)c(OC)cc23)c1 , state its recorded viability, T/C.
**Result** 0.11

---

# System: KRAS-mutant PDC tumor spheroid with HUVEC/MSC, viability
# assay info: Anticancer human tumor 327498-153-R-J2-PDC cell line growth inhibition [KRAS2];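 also: spheroids exposed to agents for seven days before reading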
# condition summary: curve of first compound; second compound 0.316 µM
readout label: IC50 (nM)
Report as a plain number; the unit nM is understood.

molecule	test result
CC1(C)CCC(CN2CCN(c3ccc(C(=O)NS(=O)(=O)c4ccc(NCC5CCOCC5)c([N+](=O)[O-])c4)c(Oc4cnc5[nH]ccc5c4)c3)CC2)=C(c2ccc(Cl)cc2)C1 + C=CC(=O)N1CCN(c2nc(OCC3CCCN3C)nc3c2CCN(c2cccc4cccc(C)c24)C3)CC1CC#N	1100
O=C(c1cc(Cc2n[nH]c(=O)c3ccccc23)ccc1F)N1CCN(C(=O)C2CC2)CC1 + CC1OCC2(CCN(c3cnc(Sc4ccnc(N)c4Cl)c(N)n3)CC2)C1N	1080

**Query** So what does the record say about IC50 for Cn1nccc1Nc1nccc(-c2cc3c(s2)C(C)(C)N(CCN2CCOCC2)C3=O)n1 + COc1cc2nc(C)nc(NC(C)c3cc(N)cc(C(F)(F)F)c3)c2cc1OC1CCOC1 ?
**Result** 560

---

# Tested on: KRAS-mutant PDC tumor spheroid with HUVEC/MSC, viability
# assay info: Anticancer human tumor 327498-153-R-J2-PDC cell line growth inhibition [KRAS2]; active = viability on the fitted dose curve at most 10% of control; inactive = the rest;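 also: spheroids exposed to agents for seven days before reading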
# condition summary: second compound 0.0316 µM; first compound 0.316 µM
# Description: Multicellular complex tumor spheroid response to RAS pathway inhibitors in combination with a targeted agents in patient-derived cell lines with oncogenic KRAS variants from multiple cancer types A high-throughput screen of multi-cell type tumor spheroids was designed to identify active combinations of targeted small molecules and KRAS pathway inhibitors. […] Compounds. […] If the clinical Cmax for an agent had not been determined, the highest concentration tested was 10 microM. […]
Assign a class; possible classes are active, inactive

Use the examples below as a reference point.
compound	category
CCN1CCN(Cc2ccc(Nc3ncc(F)c(-c4cc(F)c5nc(C)n(C(C)C)c5c4)n3)nc2)CC1 + C=CC(=O)N1CCN(c2nc(OCC3CCCN3C)nc3c2CCN(c2cccc4cccc(C)c24)C3)CC1CC#N	inactive
CCNC(=O)CC1N=C(c2ccc(Cl)cc2)c2cc(OC)ccc2-n2c(C)nnc21 (configuration not stated) + C=CC(=O)N1CCN(c2nc(OCC3CCCN3C)nc3c2CCN(c2cccc4cccc(C)c24)C3)CC1CC#N	inactive
Cn1nccc1Nc1nccc(-c2cc3c(s2)C(C)(C)N(CCN2CCOCC2)C3=O)n1 + C=CC(=O)N1CCN(c2nc(OCC3CCCN3C)nc3c2CCN(c2cccc4cccc(C)c24)C3)CC1CC#N	inactive
CC1COCCN1c1cc(-c2ccnn2C)c2ccnc(-c3ccn[nH]3)c2n1 (configuration not stated) + C=CC(=O)N1CCN(c2nc(OCC3CCCN3C)nc3c2CCN(c2cccc4cccc(C)c24)C3)CC1CC#N	active
COC(=O)c1ccc2c(C(=Nc3ccc(N(C)C(=O)CN4CCN(C)CC4)cc3)c3ccccc3)c(O)[nH]c2c1 + C=CC(=O)N1CCN(c2nc(OCC3CCCN3C)nc3c2CCN(c2cccc4cccc(C)c24)C3)CC1CC#N	inactive

**Query** Hi team, can someone confirm the assay call for CC1OCC2(CCN(c3cnc(Sc4ccnc(N)c4Cl)c(N)n3)CC2)C1N (configuration not stated) + C=CC(=O)N1CCN(c2nc(OCC3CCCN3C)nc3c2CCN(c2cccc4cccc(C)c24)C3)CC1CC#N ?
**Result** inactive

**Query** Lab log entry: CC(C)NCC(C(=O)N1CCN(c2ncnc3c2C(C)CC3O)CC1)c1ccc(Cl)cc1 (configuration not stated) + C=CC(=O)N1CCN(c2nc(OCC3CCCN3C)nc3c2CCN(c2cccc4cccc(C)c24)C3)CC1CC#N — outcome as called in the assay?
**Result** inactive
